# System: LOC_OS02G45750-cb003;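 also: purified Escherichia coli-expressed rice kinase domain construct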
# assay.procedure: thermal shift delta Tm vs DMSO control; higher = stronger stabilization (binding)
# test.conditions: 12.5 µM; protein concentration 2 µM
value.kind: thermal shift delta Tm (°C)
Entry rule: numbers only, all in °C.

compound	measurement.target	thermal shift delta Tm (°C)
CNC(=O)c1cc(Oc2ccc3nc(N[C@@H]4CCCC[C@H]4O)sc3c2)ccn1	LOC_OS02G45750-cb003	0.99
CNC(=O)CN1CCC(Oc2cc3c(Nc4cccc(Cl)c4F)ncnc3cc2OC)CC1	LOC_OS02G45750-cb003	0.58
CC1=C(C(=O)Nc2ccc3[nH]ncc3c2)C(c2ccc(F)cc2)NC(=O)N1 (configuration not stated)	LOC_OS02G45750-cb003	0.98
O=C(Nc1cccc(C(F)(F)F)c1)c1cccc2cc(Oc3cc(CO)ncn3)ccc12	LOC_OS02G45750-cb003	0.82
NC(=O)c1ccc(N(C(N)=O)c2c(F)cccc2F)nc1-c1ccc(F)cc1F	LOC_OS02G45750-cb003	-0.83
CO[C@H]1C[C@@H]2CC[C@@H](C)[C@@](O)(O2)C(=O)C(=O)N2CCCC[C@H]2C(=O)O[C@H]([C@H](C)C[C@@H]2CC[C@@H](OP(C)(C)=O)[C@H](OC)C2)CC(=O)[C@H](C)/C=C(\C)[C@@H](O)[C@@H](OC)C(=O)[C@H](C)C[C@H](C)/C=C/C=C/C=C/1C	LOC_OS02G45750-cb003	0.46

Req: Give the value of thermal shift delta Tm reported for the following: CCN1CCN(Cc2ccc(C(=O)Nc3ccc(C)c(Oc4ccc5c(c4)CC(=O)N5)c3)cc2C(F)(F)F)CC1
Resp: 1.5

Reference source for all entries: the supplement of paper PMC9694430
